Values were extracted from ChEMBL document CHEMBL3885881.

organism: Rattus norvegicus; assay: DrugMatrix - Regimen: Daily Repeat; type: toxicity, organism-based, Sprague-Dawley; set-up: regimen Daily Repeat, gender Male, age 6-8 weeks; details: in vivo, po, 0 mg/kg, 120 h, tissue Blood, route oral GAVAGE, dose level Control, time 5 day, vehicle 100 % WATER
Result type: HEMOGLOBIN (G/DL)
Give the value in G/DL but do not write G/DL after it.

The following compounds have reported results that may help.
Compound | HEMOGLOBIN / G/DL
CC(C)NCC(O)c1ccc(NS(C)(=O)=O)cc1 (stereo not drawn) | 13.93
C[C@]12C=CC(=O)C=C1CC[C@@H]1[C@@H]2[C@@H](O)C[C@@]2(C)[C@H]1CC[C@]2(O)C(=O)CO | 14.12
Cc1ccc(NC(=O)c2ccc(CN3CCN(C)CC3)cc2)cc1Nc1nccc(-c2cccnc2)n1 | 13.58
Cn1c(=O)c2[nH]cnc2n(C)c1=O.O | 14.1
CN(C)CC[C@@H](c1ccc(Cl)cc1)c1ccccn1 | 14.48
CCN(CC)CCNC(=O)c1cc(S(C)(=O)=O)ccc1OC [TIAPRIDE] | 13.58
CN1[C@@H]2CC[C@H]1C[C@@H](OC(=O)C(CO)c1ccccc1)C2 (stereo partly drawn) | 13.9
Oc1cccc(O)c1O | 14.38
NNc1nncc2ccccc12 [HYDRALAZINE] | 14.07
CC(C)(C)CC(C)(C)c1ccc(OCCOCC[N+](C)(C)Cc2ccccc2)cc1.[Cl-] [BENZETHONIUM CHLORIDE] | 14.07

Request: Need HEMOGLOBIN, item O.O.O.O.O.O.[Cl-].[Cl-].[Sr+2] [STRONTIUM CHLORIDE HEXAHYDRATE]
Result: 13.58

Request: Need HEMOGLOBIN, item CS(=O)(=O)c1ccc([C@@H](O)[C@@H](CO)NC(=O)C(Cl)Cl)cc1
Result: 13.58

Request: Need HEMOGLOBIN, item CN(C)CCOC(c1ccccc1)c1ccccc1 [DIPHENHYDRAMINE]
Result: 14.07

====

species on record: Rattus norvegicus; experiment: DrugMatrix - Regimen: Daily Repeat; type: toxicity, organism-based, Sprague-Dawley; set-up: regimen Daily Repeat, gender Male, age 6-8 weeks; conditions: in vivo, po, 2000 mg/kg, 120 h, tissue Plasma, route oral GAVAGE, dose level High, time 5 day, vehicle .5 % CMC
Each entry below carries its recorded LACTATE DEHYDROGENASE.
Give the value in u/L but do not write u/L after it.

The following molecules have reported results that may help.
Molecule | LACTATE DEHYDROGENASE / u/L
CN/C(=N/CCSCc1nc[nH]c1C)NC#N | 221.33
COc1cc2nc(N3CCN(C(=O)c4ccco4)CC3)nc(N)c2cc1OC | 204
CC1(C)S[C@@H]2[C@H](NC(=O)[C@H](N)c3ccccc3)C(=O)N2[C@H]1C(=O)O | 413.67

# next molecule below
Request: Need LACTATE DEHYDROGENASE, item O=C1Nc2ccc(Cl)cc2C(c2ccccc2Cl)=NC1O (centres undefined)
Result: 206

====

organism: Rattus norvegicus; assay: DrugMatrix - Regimen: Daily Repeat; type: toxicity, organism-based, Sprague-Dawley; parameters: regimen Daily Repeat, gender Male, age 6-8 weeks; details: in vivo, po, 1500 mg/kg, 72 h, tissue Blood, route oral GAVAGE, dose level High, time 3 day, vehicle .5 % CMC
Each entry below carries its recorded ABSOLUTE BASOPHIL.

Molecule | Reading
COC(=O)Nc1nc2ccc([S+]([O-])c3ccccc3)cc2[nH]1 (stereo not given) | 0 CELLS/uL
CN(C)[C@@H]1C(O)=C(C(N)=O)C(=O)[C@@]2(O)C(O)=C3C(=O)c4c(O)ccc(Cl)c4[C@@](C)(O)[C@H]3C[C@@H]12 | 0 CELLS/uL
CC(C)Oc1ccc2c(=O)c(-c3ccccc3)coc2c1 | 0 CELLS/uL
CC(C)=CCC/C(C)=C/CO | 0 CELLS/uL

# next molecule below
Request: Need ABSOLUTE BASOPHIL, item O=c1cnn([C@@H]2O[C@H](CO)[C@@H](O)[C@H]2O)c(=O)[nH]1
Result: 0 CELLS/uL

====

Each entry below carries its recorded TOTAL BILIRUBIN.
species: Rattus norvegicus; assay: DrugMatrix - Regimen: Daily Repeat; assay type: toxicity, organism-based, Sprague-Dawley; parameters: regimen Daily Repeat, gender Male, age 6-8 weeks; conditions: in vivo, po, 2000 mg/kg, 72 h, tissue Plasma, route oral GAVAGE, dose level High, time 3 day, vehicle .5 % CMC
Give the value in mg/dL but do not write mg/dL after it.

The following molecules have reported results that may help.
Molecule | TOTAL BILIRUBIN / mg/dL
CC1(C)S[C@@H]2[C@H](NC(=O)[C@H](N)c3ccccc3)C(=O)N2[C@H]1C(=O)O [AMPICILLIN] | 0.17
COc1cc2nc(N3CCN(C(=O)c4ccco4)CC3)nc(N)c2cc1OC [PRAZOSIN] | 0.17
CN/C(=N/CCSCc1nc[nH]c1C)NC#N [CIMETIDINE] | 0.17

Request: Need TOTAL BILIRUBIN, item O=C1Nc2ccc(Cl)cc2C(c2ccccc2Cl)=NC1O (centres undefined) [LORAZEPAM]
Result: 0.27

====

species: Rattus norvegicus; test: DrugMatrix - Regimen: Daily Repeat; type: toxicity, organism-based, Sprague-Dawley; set-up: regimen Daily Repeat, gender Male, age 6-8 weeks; conditions: in vivo, po, 0 mg/kg, 72 h, tissue Plasma, route oral GAVAGE, dose level Control, time 3 day, […]
Each entry below carries its recorded BLOOD UREA NITROGEN.
Give the value in mg/dL but do not write mg/dL after it.

Molecule | Reading
Clc1ccc(COC(Cn2ccnc2)c2ccc(Cl)cc2Cl)cc1 (centres undefined) | 13.33
CO[C@H]1/C=C/O[C@@]2(C)Oc3c(C)c(O)c4c(O)c(c(/C=N/N5CCN(C6CCCC6)CC5)c(O)c4c3C2=O)NC(=O)/C(C)=C\C=C\[C@H](C)[C@H](O)[C@@H](C)[C@@H](O)[C@@H](C)[C@H](OC(C)=O)[C@@H]1C | 14.17
COc1cc(N)c(Cl)cc1C(=O)NC1CCN(CCCOc2ccc(F)cc2)CC1OC (centres undefined) [CISAPRIDE] | 14

Request: Need BLOOD UREA NITROGEN, item CC(C)(C)NC(=O)[C@H]1CC[C@H]2[C@@H]3CC[C@H]4NC(=O)C=C[C@]4(C)[C@H]3CC[C@]12C [FINASTERIDE]
Result: 11.33

====

species: Rattus norvegicus; assay: DrugMatrix - Regimen: Daily Repeat; format: toxicity, organism-based, Sprague-Dawley; parameters: regimen Daily Repeat, gender Male, age 6-8 weeks; conditions: in vivo, po, 0 mg/kg, 72 h, tissue Plasma, route oral GAVAGE, dose level Control, time 3 day, […]
Result type: CREATININE (mg/dL)
Give the value in mg/dL but do not write mg/dL after it.

The following molecules have reported results that may help.
Molecule | Reading
CO[C@H]1/C=C/O[C@@]2(C)Oc3c(C)c(O)c4c(O)c(c(/C=N/N5CCN(C6CCCC6)CC5)c(O)c4c3C2=O)NC(=O)/C(C)=C\C=C\[C@H](C)[C@H](O)[C@@H](C)[C@@H](O)[C@@H](C)[C@H](OC(C)=O)[C@@H]1C [RIFAPENTINE] | 0.2
COc1cc(N)c(Cl)cc1C(=O)NC1CCN(CCCOc2ccc(F)cc2)CC1OC (stereo not given) [CISAPRIDE] | 0.16
CC(C)(C)NC(=O)[C@H]1CC[C@H]2[C@@H]3CC[C@H]4NC(=O)C=C[C@]4(C)[C@H]3CC[C@]12C [FINASTERIDE] | 0.33

Request: Need CREATININE, item COc1cc([C@@H]2c3cc4c(cc3[C@@H](O[C@@H]3O[C@@H]5CO[C@@H](C)O[C@H]5[C@H](O)[C@H]3O)[C@H]3COC(=O)[C@H]23)OCO4)cc(OC)c1O [ETOPOSIDE]
Result: 0.33

Request: Need CREATININE, item Clc1ccc(COC(Cn2ccnc2)c2ccc(Cl)cc2Cl)cc1 (stereo not given) [ECONAZOLE]
Result: 0.16

====

species on record: Rattus norvegicus; test: DrugMatrix - Regimen: Daily Repeat; assay type: toxicity, organism-based, Sprague-Dawley; set-up: regimen Daily Repeat, gender Male, age 6-8 weeks; conditions: in vivo, sc, 0 mg/kg, 120 h, tissue Blood, route subcutaneous, dose level Control, time 5 day, […]
Each entry below carries its recorded LYMPHOCYTE.
Give the value in % but do not write % after it.

Compound | LYMPHOCYTE, %
Oc1c(Cl)cc(Cl)c(Cl)c1Cc1c(O)c(Cl)cc(Cl)c1Cl [HEXACHLOROPHENE] | 89.33
CCC(=O)O[C@]1(C(=O)CCl)[C@@H](C)C[C@H]2[C@@H]3CCC4=CC(=O)C=C[C@]4(C)[C@@]3(F)[C@@H](O)C[C@@]21C [CLOBETASOL PROPIONATE] | 84.5
CCN(CC)CCOCCC1=CCC2CC1C2(C)C (stereo not given) [MYRTECAINE] | 89.83

Request: Need LYMPHOCYTE, item O=C(Nc1ccc(Br)cc1)c1cc(Br)cc(Br)c1O [TRIBROMSALAN]
Result: 84.5

Request: Need LYMPHOCYTE, item CC(C)(C)CC(C)(C)c1ccc(OCCOCC[N+](C)(C)Cc2ccccc2)cc1.[Cl-] [BENZETHONIUM CHLORIDE]
Result: 89.33
